# target or system: RSV F protein of subtype B strain 18537, on virus (respiratory syncytial virus subtype B …, UniProt P13843 26-574)
# Sequence (P13843 26-574): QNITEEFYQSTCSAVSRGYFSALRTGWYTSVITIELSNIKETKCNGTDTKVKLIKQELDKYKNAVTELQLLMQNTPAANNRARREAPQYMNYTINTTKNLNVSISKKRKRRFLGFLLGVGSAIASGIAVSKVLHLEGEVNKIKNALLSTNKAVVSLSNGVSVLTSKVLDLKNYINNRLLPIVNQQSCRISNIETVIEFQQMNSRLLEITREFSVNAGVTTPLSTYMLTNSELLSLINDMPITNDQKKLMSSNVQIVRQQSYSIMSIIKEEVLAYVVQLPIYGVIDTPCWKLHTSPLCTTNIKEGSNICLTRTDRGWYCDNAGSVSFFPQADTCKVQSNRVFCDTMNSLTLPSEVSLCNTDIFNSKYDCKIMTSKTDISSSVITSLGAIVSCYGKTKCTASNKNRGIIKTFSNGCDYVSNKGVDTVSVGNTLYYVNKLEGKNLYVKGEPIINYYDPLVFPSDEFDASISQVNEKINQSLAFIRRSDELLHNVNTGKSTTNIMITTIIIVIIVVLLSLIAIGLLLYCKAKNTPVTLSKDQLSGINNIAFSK
# protocol description: cell-based or functional assay
readout name: Neut IC50 (ug/ml) subtype B (µg/mL)
Just the number in µg/mL, nothing appended.

Returns the measured Neut IC50 (ug/ml) subtype B for the input binder. Input: ADI-15555 (antibody, V domains shown) VH: EVQLVESGGALVKPGGSLRLSCVGTGLTFTTAYMSWARQAPGKGLEWVGRIKSKSDGGTTDYPTPVKGRFTISRDESKNTLYLQMNSLKIEDTAVYYCTTDRGITARPIFDSWGQGTLVTVSS VL: QSVLTQPPSVSGALGRRVTISCTGSSSNIGAGYDVHWYRQLPGTAPKLLIYGNTKRPSGVPDRFSGSKYATSASLAITGLQAEDDADYYCQSYDGGLSGYVFGTGTKLTVL 2.45

And ADI-15569 (antibody, V domains shown, IgG) VH: EVQLVESGAEVKKPGASVKVSCKASGYTFANYGITWVRQAPGQGLEYMGWISAYNGNTNYAQKFQGRVTMTTDTSTSTAYMELRSLRSDDTAIYYCARDPGVTAAVLLDYWGQGALVTVSS VL: DIVLTQSPLSLPVTLGQPASISCRSSQSLVFSDGNTYLSWFQQRPGQSPRRLLYKVSNRDSGVPDRFSGSGSGTDFTLTISRVEAEDVGVYYCLQGTPPYTFGQGTKVDIK ? 0.035

ADI-15564 (antibody, V domains shown, IgG) VH: QVQLVQSGAEVKKPGSSVKVSCKASGDTFNSYSISWVRQAPGQGLEWMGGILPMFGSSDYAQKFQGRLTITADESTRTAYMELNSLTSEDTAIYYCARDNYYVWTGRYPEFDFWGQGTLVTVSS VL: EIVLTQSPGTLSLSPGDEATLSCRASQSVTSNYLAWYQQRPGQAPRLLISGASRRATAVPDRFSGSGSGTDFTLTISRLEPEDFAVYYCQQYGSTPITFGQGTRLEIK ? 0.016

Data origin, for the record: patent US20220144922A1
